Ok so here's the combined literature set: IC50 for RORc (Homo sapiens).
Labels assigned by IC50 range: low: < 30 nM; moderate: ≥ 30 nM and < 400 nM; high: ≥ 400 nM

- compound: "CNC(=O)C[C@]12CC[C@H](c3cc(-c4ccccc4F)nnc31)C2(C)C"
  label: "high"
- compound: "C[C@H]1CC[C@H](c2ccccc2)S(=O)(=O)N1Cc1ccc(C2(O)CCOCC2)cc1F"
  label: "moderate"
- compound: "CNC(=O)CNC1(c2ccc(CN3[C@@H](C)CC[C@H](c4ccccc4)S3(=O)=O)c(F)c2)CCOCC1"
  label: "moderate"
- compound: "CC1(C)[C@@H]2CC[C@@]1(C(=O)NC1CCC1)c1nnc(-c3c(F)cccc3F)cc12"
  label: "high"
- compound: "CC(C)CN(c1cc(F)ccc1F)S(=O)(=O)c1ccc(OC2CCN(S(C)(=O)=O)CC2)cc1"
  label: "low"
- compound: "CC1(C)[C@H]2CC[C@]1(c1cncc(-c3ccn[nH]3)n1)c1nnc(-c3c(F)cccc3F)cc12"
  label: "low"
- compound: "CO[C@H]1C[C@@H](NC(=O)C2(c3ccc(CN4[C@@H](C)CC[C@H](c5ccccc5)S4(=O)=O)c(F)c3)CCOCC2)C1"
  label: "moderate"
- compound: "CC(C)CN(c1ccc(F)cc1F)S(=O)(=O)c1ccc(OC2CCN(S(C)(=O)=O)CC2)cc1"
  label: "low"
- compound: "Cc1ccnc(COc2ccc(CN3[C@@H](C)CCC(c4ccccc4)S3(=O)=O)cc2)n1 (single isomer, unassigned)"
  label: "high"
- compound: "CC1(C)[C@H]2CC[C@]1(CN1CCOCC1)c1nnc(-c3c(F)cccc3F)cc12"
  label: "moderate"
- compound: "CC(=O)O[C@H]1C[C@@H]2c3cc(-c4ccccc4F)nnc3[C@@]1(C)C2(C)C"
  label: "high"
- compound: "CC1(C)[C@H]2CC[C@]1(c1cccc(C#N)n1)c1nnc(-c3c(F)cccc3F)cc12"
  label: "low"
